Origin of values: PubChem BioAssay AID1159580

Method summary: chemical genetic growth profiling, strain panel (AID 1159580);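 note: tested at 20 µM; growth read once vehicle control cultures reached saturation at 30 °C; lower values mean less growth of the strain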
Conditions used: S. cerevisiae deletion strains, growth OD, locus YDR318W, strain mcm21
About 2,000 (36%) of roughly 5,500 compounds were called active. Not shown: some 18% with an inconclusive outcome. Cut-off read from the data, not from the text of the source: active = normalized growth mostly below about 0.91 (no sharp cut-off); inconclusive = no clear call, values can overlap the other calls; inactive = mostly above about 0.92. This is one part of the list.
Hi there, use one of these labels in your reply, thanks! YES (active), NO (inactive)

So what was the verdict on CC(=O)Nc1c(I)cc(I)c(C(=O)O)c1I in this test?
NO

// outcome(item) with item = COc1cc2cccc(OC)c(=O)c2c(OC)c1OC
NO

Give the logged outcome of this assay for the following molecule: CC(C)[C@@H]1CC[C@@H](C)C[C@H]1OC(=O)c1ccccc1
NO

Can you look up the reported call for Cn1c(=O)c2c(ncn2CCO)n(C)c1=O for me?
NO

Call for entry CN(C)CCC[C@@]1(c2ccc(F)cc2)OCc2cc(C#N)ccc21 :
NO

Just curious, what result did Cn1c(=O)[nH]c2nc[nH]c2c1=O get here?
NO

Which result was noted for this molecule in the test: COc1ccc(/C=C/c2cc(O)cc(O[C@@H]3O[C@H](CO)[C@@H](O)[C@H](O)[C@H]3O)c2)cc1
NO

Recorded test outcome, item CC(C)N1C(=O)c2ccccc2NS1(=O)=O
NO

Answer briefly: the call reported for C=C[C@H]1CN2CC[C@H]1C[C@H]2[C@H](O)c1ccnc2ccccc12 in this assay.
NO

Could you check what this test reported for CC(C)OC(=O)Nc1cccc(Cl)c1 ?
NO

Dear all, I need the recorded test outcome for C[N+]12CCC(CC1)C(OC(=O)C(O)(c1ccccc1)c1ccccc1)C2 (configuration not stated) , thank you.
NO

Record lookup: outcome of this test for O=C(/C=C/c1ccc(O)cc1)c1ccc(O)cc1O ?
NO

Any idea what this test logged for CC(NC(C)(C)C)C(=O)c1cccc(Cl)c1 (configuration not stated) ?
NO

Status in this test for O=C(N[C@@H](CO)[C@H](O)c1ccc([N+](=O)[O-])cc1)C(Cl)Cl ?
NO

What call does the record list for CC(=O)CCCCn1c(=O)c2c(ncn2C)n(C)c1=O ?
NO

How did this test come out for OC[C@H]1O[C@@H](Oc2ccc(O)cc2)[C@H](O)[C@@H](O)[C@@H]1O ?
NO

Which outcome was entered for the molecule CCCC(=O)Nc1ccc(OCC(O)CNC(C)C)c(C(C)=O)c1 (configuration not stated) in this test?
NO

Would you mind telling me which call this test gave C[C@]12CC[C@@H](O)C[C@H]1CCc1ccccc12 ?
NO

Each molecule tested received a call. Report the one for O=C(/C=C/c1ccccc1)c1ccc(O[C@@H]2O[C@H](CO)[C@@H](O)[C@H](O)[C@H]2O)cc1O .
YES

Lab log entry: COP(=O)(NC(C)=O)SC (configuration not stated) — outcome as called in the assay?
NO

Test call, this molecule: CNC(=O)N(C)c1nnc(C(C)(C)C)s1
NO

Hello, I am checking results. What call was entered for C[C@H]1C(=O)CCC2[C@]3(C)CC[C@@]4(C)C5CC(C)(C)CC[C@]5(C)CC[C@]4(C)C3CC[C@@]21C (some centres not stated) ?
NO

Check the results log: what was the call for Cc1ccc(O)c(C(CCN(C(C)C)C(C)C)c2ccccc2)c1 (configuration not stated) ?
NO

For this molecule, state the assay outcome: NS(=O)(=O)c1cc2c(cc1Cl)NCNS2(=O)=O
NO

Which outcome was entered for the molecule COC1=CC23CCCN2CCc2cc4c(cc2C3C1O)OCO4 (configuration not stated) in this test?
NO

Any idea what this test logged for O=C(/C=C/c1ccccc1)c1c(O)cc(O)cc1O ?
NO

I'd appreciate the recorded outcome for NC(Cc1ccc(Cl)cc1)C(=O)O (configuration not stated) from this test.
NO
